Readings of IC50 for the listed compounds
Biological target: PIK3CD (Human) (UniProt O00329)
Sequence (O00329 whole entry, looked up): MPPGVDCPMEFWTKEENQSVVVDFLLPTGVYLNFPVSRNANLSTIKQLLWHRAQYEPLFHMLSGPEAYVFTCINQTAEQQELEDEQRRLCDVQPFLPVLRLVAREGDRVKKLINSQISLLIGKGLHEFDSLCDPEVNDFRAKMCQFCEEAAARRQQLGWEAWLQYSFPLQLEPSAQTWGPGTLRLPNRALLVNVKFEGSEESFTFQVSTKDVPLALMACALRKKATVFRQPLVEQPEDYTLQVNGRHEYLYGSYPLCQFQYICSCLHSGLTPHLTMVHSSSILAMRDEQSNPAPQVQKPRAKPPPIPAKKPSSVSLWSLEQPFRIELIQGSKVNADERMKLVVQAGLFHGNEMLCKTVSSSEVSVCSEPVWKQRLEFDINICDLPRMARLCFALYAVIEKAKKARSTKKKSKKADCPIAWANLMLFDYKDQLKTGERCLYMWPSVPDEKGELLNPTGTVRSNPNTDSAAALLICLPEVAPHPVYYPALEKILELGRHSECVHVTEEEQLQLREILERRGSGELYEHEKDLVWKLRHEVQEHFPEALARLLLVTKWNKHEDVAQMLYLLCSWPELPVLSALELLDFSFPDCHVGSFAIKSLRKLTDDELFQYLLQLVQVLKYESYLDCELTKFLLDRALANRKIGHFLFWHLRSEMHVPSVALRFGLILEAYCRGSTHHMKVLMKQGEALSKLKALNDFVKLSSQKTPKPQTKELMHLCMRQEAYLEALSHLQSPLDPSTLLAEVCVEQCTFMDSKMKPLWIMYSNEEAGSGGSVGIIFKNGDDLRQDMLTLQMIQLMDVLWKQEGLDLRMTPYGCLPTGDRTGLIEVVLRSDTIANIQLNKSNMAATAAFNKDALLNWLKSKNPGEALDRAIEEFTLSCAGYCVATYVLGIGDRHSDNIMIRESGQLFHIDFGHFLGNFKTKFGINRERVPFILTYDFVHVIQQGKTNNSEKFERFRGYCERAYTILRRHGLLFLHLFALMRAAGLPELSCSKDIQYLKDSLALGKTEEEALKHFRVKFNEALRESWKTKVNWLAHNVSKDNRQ
Experiment: Assessment of PIK3CD Kinase Activity

compound | study-system | IC50
CN(C)c1ccc(-c2nc3c(N4CCC(n5c(=O)[nH]c6ccccc65)CC4)ncnc3n2C)cn1 | PIK3CD (Human) (UniProt O00329) | < 50 nM
Cn1c(C(=O)N2CC[C@@H](F)C2)nc2c(N3CCC(n4c(=O)[nH]c5ccccc54)CC3)ncnc21 | PIK3CD (Human) (UniProt O00329) | 50 to 250 nM
CC1CN(c2ncnc3c2nc(C(=O)NCC2CC2)n3C)CCC1n1c(=O)[nH]c2ccccc21 (centres undefined) | PIK3CD (Human) (UniProt O00329) | 50 to 250 nM
Cn1c(C(=O)NCC2CC2)nc2c(N3CCC(n4c(=O)[nH]c5ccccc54)CC3)ncnc21 | PIK3CD (Human) (UniProt O00329) | 50 to 250 nM
Cc1cccc(C)c1-n1ncc2c1CCN(c1ncnc3c1nc(C(=O)NCC1CC1)n3C)C2 | PIK3CD (Human) (UniProt O00329) | 500 to 1500 nM
Cc1ccc(-n2ncc3c2CCN(c2ncnc4c2nc(C(=O)NCC2CC2)n4C)C3)c(C)c1 | PIK3CD (Human) (UniProt O00329) | 500 to 1500 nM
Cn1c(C(=O)NCC2CC2)nc2c(N3CCC(C4C(=O)Nc5ccccc54)CC3)ncnc21 (centres undefined) | PIK3CD (Human) (UniProt O00329) | 250 to 500 nM
CCn1c(-c2cn[nH]c2)nc2c(N3CCC(n4c(=O)[nH]c5ccccc54)CC3)ncnc21 | PIK3CD (Human) (UniProt O00329) | < 50 nM
Cc1cccc(-n2ncc3c2CCN(c2ncnc4c2nc(C(=O)NCC2CC2)n4C)C3)c1 | PIK3CD (Human) (UniProt O00329) | 500 to 1500 nM
Cc1c(-c2nc3c(N4CCC(n5c(=O)[nH]c6c(F)cccc65)CC4)ncnc3n2C)cnn1C | PIK3CD (Human) (UniProt O00329) | < 50 nM
Cc1ccccc1-n1ncc2c1CCN(c1ncnc3c1nc(C(=O)NCC1CC1)n3C)C2 | PIK3CD (Human) (UniProt O00329) | 500 to 1500 nM
COc1cccc2c1[nH]c(=O)n2C1CCN(c2ncnc3c2nc(C(=O)NCC2CC2)n3C)CC1 | PIK3CD (Human) (UniProt O00329) | 50 to 250 nM
Cn1c(C(=O)NCC2CC2)nc2c(N3CCC(n4c(N)nc5ccccc54)CC3)ncnc21 | PIK3CD (Human) (UniProt O00329) | 50 to 250 nM
Cn1c(C(=O)NCC2CC2)nc2c(N3CCc4c(cnn4-c4ccccc4)C3)ncnc21 | PIK3CD (Human) (UniProt O00329) | 250 to 500 nM
CCCn1cc(-c2nc3c(N4CCC(n5c(=O)[nH]c6ccccc65)CC4)ncnc3n2CC)cn1 | PIK3CD (Human) (UniProt O00329) | < 50 nM
CN1CCN(c2cccc3c2[nH]c(=O)n3C2CCN(c3ncnc4c3nc(C(=O)NCC3CC3)n4C)CC2)CC1 | PIK3CD (Human) (UniProt O00329) | 50 to 250 nM
COc1ccc(S(=O)(=O)N2CCN(c3ncnc4c3nc(-c3cnn(C)c3)n4C)CC2)cc1 | PIK3CD (Human) (UniProt O00329) | 500 to 1500 nM
CN(C)C1CN(C(=O)c2nc3c(N4CCC5(CC4)C(=O)NCN5c4ccccc4)ncnc3n2C)C1 | PIK3CD (Human) (UniProt O00329) | 500 to 1500 nM
Cn1c(-c2cn[nH]c2)nc2c(N3CCC(n4c(=O)[nH]c5ccccc54)CC3)ncnc21 | PIK3CD (Human) (UniProt O00329) | < 50 nM
